Hello, the source for this data is patent US20240352111A1, in case you need it.

- Assay System: T1, hArtemin-MMH (human)
- T1 construct: also called hARTN.mmh; hARTN (A108-G220).mmh
- T1 chain: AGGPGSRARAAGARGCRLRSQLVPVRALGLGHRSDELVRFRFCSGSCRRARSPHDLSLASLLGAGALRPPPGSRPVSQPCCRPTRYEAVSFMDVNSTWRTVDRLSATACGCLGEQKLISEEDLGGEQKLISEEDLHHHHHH
- Procedure Details: blocking ELISA, antibody blocks 75 pM hARTN.mmh binding to plate-coated hGFRa3.hFc
Readout Type: pIC50
One number for each entry, as −log10 of the molar value.

Worked examples follow.
## Task Please report the recorded pIC50 for H4H33336P (antibody, human IgG4 S228P, kappa, V domains shown, Fully human antibody; also called Artemin mAb; anti-ARTN antibody) VH: QVQLVESGGGVVQPGRSLRLSCVASGFILSHYGMHWVRQAPGKGLEWVAVIWFDGTNKYYADSVKGRFTVSRDNSKNTLYMQMNSLRAEDTAVYYCARDPPPARRGNYNGMDVWGQGTTVTVSS VL: DIQMTQSPSSLSASVGDRVTITCRASQDIRNDLGWYQQKPGKAPKRLIFGASSLQSGVPLRFSGSGSGTEFTLTINNLQPEDFATFYCLQDNSYPWTFGQGTKVEIKR .
## Result 9.79

## Task Field request: pIC50 | item: H4H33349P (antibody, human IgG4 S228P, kappa, V domains shown, Fully human antibody; also called Artemin mAb; anti-ARTN antibody) VH: QVQLVESGGGVVQPGRSLRLSCEASGFTFSDYDLHWVRQAPGKGLEWVAFISNDGSNEYYPKSVKGRFSISRDNSKNTLYLQMNSLRAEDTAVYHCTKERDYYYDSSGSLDYWGQGTLVTVSS VL: DIQMTQSPSSLSASVGDRVTITCRASQTINNYLNWYQQKPGKAPKLLIYTTSGLQSGVPSRFSGRGSGTDFTLAISSLQPEDFATYYCQQSYHSPFTFGPGTKVDIKR
## Result 9.89

Would you mind giving pIC50 for every binder in the list below?
1. H4H33331P (antibody, human IgG4 S228P, kappa, V domains shown, Fully human antibody (human variable and constant domains) from a VELOCIMMUNE mouse; also called Artemin mAb; anti-ARTN antibody) VH: EVQLVESGGDLVQPGGSLKLSCAASGFTFSGSAMHWVRQASGKGLEWVGRIRNKVHRYATEYGASVKGRFTISRDDSKNTAYLQMNSLKIEDTAVYYCVVVVPGSIEAFDIWGQGTMVTVSS VL: DIQMTQSPSSLSASVGDRVTITCRASQSISTYLNWYQQKPGKAPNLLIYAASTLESGVPSRFSGSGSGTDFTLTISSLQPEDFEIYYCQQSYNIPWTFGQGTKVEIKR
2. H4H33335P (antibody, human IgG4 S228P, kappa, V domains shown, Fully human antibody; also called Artemin mAb; anti-ARTN antibody) VH: EVQLVESGGGLVQPGGSLRLSCAASGFTFSSYDMHWVRQATGKGLEWVSTIDTAGDTYYPGSVKGRFTISRENAKNSLYLQMNSLRAGDTAVYYCARDGELELQGYFDLWGRGTLVTVSS VL: DIQMTQSPSSLSASVGDRVTITCRASQIISIYLNWYQQKPGKAPKLLIYAASSLQSGVPSRFSGSGSGTDFTLTISSLQPEDFATYYCQQSYTTPLTFGGGTKVEIKR

## Result
1. 9.42
2. 9.30
